meta.source: patent US8993760B2

Target: UniProtKB Q13464
Test: Rho-kinase (ROCK1) inhibition
Type: biochemical
Conditions: Table 1; first number of the cell, concentration not given
Measure Name: % Inhibition (%)
Return type: number; implicit unit %.

Which % Inhibition value is on record for "c1ccc(COC[C@H]2CN(c3ccnc4ccccc34)CCN2)cc1" ?
85

Which % Inhibition value is on record for "CC(C)(C)OC(=O)N1CCN(c2ccnc3ccccc23)C[C@@H]1Cc1ccccc1" ?
47

Which % Inhibition value is on record for "CC(C)(C)OC(=O)N1CCN(c2ccnc3ccccc23)C[C@@H]1COCc1ccccc1" ?
54

Which % Inhibition value is on record for "c1ccc(C[C@H]2CN(c3ccnc4ccccc34)CCN2)cc1" ?
43

Which % Inhibition value is on record for "CC(C)(C)OC(=O)N1CCN(c2cccc3cnccc23)C[C@@H]1Cc1ccccc1" ?
83

Which % Inhibition value is on record for "CC(C)(C)OC(=O)N1CCN(c2cccc3cnccc23)C[C@@H]1COCc1ccccc1" ?
49

Which % Inhibition value is on record for "c1ccc([C@H]2CN(c3cccc4cnccc34)CCN2)cc1" ?
67

* * *

I'd appreciate it if you could supply IC50 values for the items below.
Biological target: Rho-kinase (ROCK1) (Homo sapiens, UniProt Q13464)
Sequence (Q13464 whole entry, species assumed): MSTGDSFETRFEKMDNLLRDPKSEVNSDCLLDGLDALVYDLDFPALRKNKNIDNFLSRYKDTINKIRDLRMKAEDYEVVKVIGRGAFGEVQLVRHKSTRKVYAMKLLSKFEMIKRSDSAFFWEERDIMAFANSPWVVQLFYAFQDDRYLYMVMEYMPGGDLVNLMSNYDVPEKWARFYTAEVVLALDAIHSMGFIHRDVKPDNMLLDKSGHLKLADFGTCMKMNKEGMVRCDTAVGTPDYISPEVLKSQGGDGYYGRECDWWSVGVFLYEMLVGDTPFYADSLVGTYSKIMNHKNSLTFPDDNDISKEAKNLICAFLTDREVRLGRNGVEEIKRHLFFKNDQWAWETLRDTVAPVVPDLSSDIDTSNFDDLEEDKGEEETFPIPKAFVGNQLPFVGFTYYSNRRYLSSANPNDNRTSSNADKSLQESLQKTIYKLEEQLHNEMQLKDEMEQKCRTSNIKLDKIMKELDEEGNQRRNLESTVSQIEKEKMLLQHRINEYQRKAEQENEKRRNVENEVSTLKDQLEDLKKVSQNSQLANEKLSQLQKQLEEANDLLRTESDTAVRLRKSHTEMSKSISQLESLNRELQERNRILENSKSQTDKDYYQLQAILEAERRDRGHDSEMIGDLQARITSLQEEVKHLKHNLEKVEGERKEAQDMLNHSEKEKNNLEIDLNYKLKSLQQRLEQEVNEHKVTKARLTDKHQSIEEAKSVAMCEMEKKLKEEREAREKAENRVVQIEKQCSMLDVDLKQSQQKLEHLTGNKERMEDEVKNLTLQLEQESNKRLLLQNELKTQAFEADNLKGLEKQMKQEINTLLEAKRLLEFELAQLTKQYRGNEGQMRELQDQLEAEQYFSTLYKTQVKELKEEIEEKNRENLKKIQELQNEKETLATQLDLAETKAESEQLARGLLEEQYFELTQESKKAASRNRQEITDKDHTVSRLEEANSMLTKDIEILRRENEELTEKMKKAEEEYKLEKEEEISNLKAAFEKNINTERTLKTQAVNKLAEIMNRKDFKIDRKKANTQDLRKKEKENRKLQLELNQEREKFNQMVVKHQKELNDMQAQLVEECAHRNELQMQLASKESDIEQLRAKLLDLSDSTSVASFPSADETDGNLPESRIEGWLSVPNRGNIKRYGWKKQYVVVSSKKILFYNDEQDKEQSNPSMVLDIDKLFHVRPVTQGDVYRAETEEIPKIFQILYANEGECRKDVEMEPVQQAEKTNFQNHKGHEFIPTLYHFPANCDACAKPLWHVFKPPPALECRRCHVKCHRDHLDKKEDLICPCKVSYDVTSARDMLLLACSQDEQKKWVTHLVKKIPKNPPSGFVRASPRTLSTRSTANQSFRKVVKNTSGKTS
Test: Rho-kinase (ROCK1) inhibition
Type: biochemical
Conditions: read-out: IC50, inhibitory activity against Rho-kinase activity
Return type: number; implicit unit µM.

Observed IC50 on Rho-kinase (ROCK1) (Homo sapiens, UniProt Q13464) for O=C(Nc1ccncc1)N1CCN[C@@H](Cc2ccccc2)C1 [Compound 12b] , please.
14

Observed IC50 on Rho-kinase (ROCK1) (Homo sapiens, UniProt Q13464) for O=C(Nc1ccncc1)OC1CCNCC1 [Compound 16b] , please.
7.5

* * *

Molecular target: Rho-kinase (ROCK1) (Homo sapiens)
Assay: Rho-kinase (ROCK1) inhibition
Type: biochemical
Conditions: Table 3; read-out: IC50
Measure Name: IC50 (µM)
Return type: number; implicit unit µM.

Which IC50 value is on record for "c1ccc(C[C@H]2CN(Cc3cccc4cnccc34)CCN2)cc1" ?
16

Which IC50 value is on record for "CC(C)[C@H]1CN(Cc2cccc3cnccc23)CCN1" ?
22

Which IC50 value is on record for "c1ccc(C[C@H]2CN(Cc3cccc4ncccc34)CCN2)cc1" ?
67

* * *

Biological target: Rho-kinase (ROCK1) (Homo sapiens)
Assay: Rho-kinase (ROCK1) inhibition
Assay type: biochemical
Settings: Table 4; @ 100 μM
Measure Name: Inhibition (@ 100 μM)

Which Inhibition (@ 100 μM) value is on record for O=C(Nc1ccncc1)N1CCCNCC1 [Compound 10] ?
16.7 (@ 100 μM)

Which Inhibition (@ 100 μM) value is on record for CCOC(=O)C1CCN(C(=O)Nc2ccncc2)CC1 [Compound 7] ?
6.29 (@ 100 μM)

Which Inhibition (@ 100 μM) value is on record for O=C(Nc1ccncc1)N1CCCN(Cc2ccccc2)CC1 [Compound 9] ?
21.0 (@ 100 μM)

Which Inhibition (@ 100 μM) value is on record for O=C(Nc1ccncc1)N1CCN[C@@H](COCc2ccccc2)C1 [Compound 12a] ?
9.58

Which Inhibition (@ 100 μM) value is on record for Cl.O=C(O)C1CCN(C(=O)Nc2ccncc2)CC1 [Compound 8] ?
1.59 (@ 100 μM)
